biological target: p110δ (Homo sapiens, UniProt O00329); assay: ex-vivo PI3 kinase assay using recombinant PI3K; conditions: ATP at Km
Sequence (O00329 whole entry, species assumed): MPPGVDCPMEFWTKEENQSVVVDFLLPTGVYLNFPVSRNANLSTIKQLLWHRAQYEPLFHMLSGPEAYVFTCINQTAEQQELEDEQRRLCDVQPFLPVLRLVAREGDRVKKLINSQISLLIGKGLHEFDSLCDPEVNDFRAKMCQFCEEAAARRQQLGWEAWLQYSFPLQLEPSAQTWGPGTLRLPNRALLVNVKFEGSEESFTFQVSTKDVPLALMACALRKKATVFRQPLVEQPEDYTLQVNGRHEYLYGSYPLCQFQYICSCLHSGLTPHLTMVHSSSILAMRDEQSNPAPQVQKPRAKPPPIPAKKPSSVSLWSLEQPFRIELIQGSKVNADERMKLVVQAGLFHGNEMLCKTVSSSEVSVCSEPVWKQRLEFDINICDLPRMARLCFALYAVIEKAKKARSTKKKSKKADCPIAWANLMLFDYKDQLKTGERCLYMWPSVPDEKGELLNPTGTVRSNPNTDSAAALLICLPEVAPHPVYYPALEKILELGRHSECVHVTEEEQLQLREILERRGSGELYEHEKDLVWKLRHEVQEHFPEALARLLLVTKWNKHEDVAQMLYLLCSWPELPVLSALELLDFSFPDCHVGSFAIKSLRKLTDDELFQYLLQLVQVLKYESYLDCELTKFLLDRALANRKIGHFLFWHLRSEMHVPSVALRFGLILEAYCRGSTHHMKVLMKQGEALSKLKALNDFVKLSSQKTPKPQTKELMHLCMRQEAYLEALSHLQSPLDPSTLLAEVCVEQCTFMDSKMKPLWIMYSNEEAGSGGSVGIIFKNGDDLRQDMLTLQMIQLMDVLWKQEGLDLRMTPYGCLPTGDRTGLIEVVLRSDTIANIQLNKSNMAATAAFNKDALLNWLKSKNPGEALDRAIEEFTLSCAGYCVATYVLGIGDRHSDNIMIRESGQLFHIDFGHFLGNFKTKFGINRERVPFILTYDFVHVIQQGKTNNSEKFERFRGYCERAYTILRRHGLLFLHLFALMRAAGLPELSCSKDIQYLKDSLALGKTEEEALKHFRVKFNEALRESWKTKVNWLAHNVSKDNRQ
Sequence (P27986 whole entry partner, species assumed): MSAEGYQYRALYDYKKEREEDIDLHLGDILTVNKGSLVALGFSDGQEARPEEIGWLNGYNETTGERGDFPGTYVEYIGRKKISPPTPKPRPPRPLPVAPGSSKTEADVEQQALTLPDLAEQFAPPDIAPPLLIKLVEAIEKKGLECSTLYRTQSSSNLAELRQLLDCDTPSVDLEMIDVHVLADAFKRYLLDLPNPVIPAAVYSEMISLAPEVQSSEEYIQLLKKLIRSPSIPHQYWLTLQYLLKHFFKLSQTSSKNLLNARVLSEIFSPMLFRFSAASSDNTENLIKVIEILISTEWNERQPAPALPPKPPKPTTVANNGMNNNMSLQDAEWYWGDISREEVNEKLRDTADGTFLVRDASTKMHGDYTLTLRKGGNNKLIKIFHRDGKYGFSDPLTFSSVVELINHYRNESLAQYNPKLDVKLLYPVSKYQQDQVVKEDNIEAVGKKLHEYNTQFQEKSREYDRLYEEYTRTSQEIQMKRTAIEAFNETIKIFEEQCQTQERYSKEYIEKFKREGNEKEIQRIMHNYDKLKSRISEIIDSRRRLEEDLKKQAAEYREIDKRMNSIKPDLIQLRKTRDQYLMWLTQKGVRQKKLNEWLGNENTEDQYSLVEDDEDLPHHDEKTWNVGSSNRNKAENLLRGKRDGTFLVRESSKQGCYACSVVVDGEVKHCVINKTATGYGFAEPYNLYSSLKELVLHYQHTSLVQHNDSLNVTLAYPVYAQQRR
measured metric: IC50 (nM)
Give a bare numeral; the unit nM is implied.

Qu. I have this compound here, Cc1ccccc1-n1c(C(C)Nc2nc(N)nc3nc[nH]c23)nc2cccc(C)c2c1=O (stereo not shown) , and I need its recorded IC50.
Ans. 1.3

----------
target: UniProt P48736; assay: ex-vivo PI3 kinase assay using recombinant PI3K; settings: ATP at Km
Sequence (P48736 whole entry, species assumed): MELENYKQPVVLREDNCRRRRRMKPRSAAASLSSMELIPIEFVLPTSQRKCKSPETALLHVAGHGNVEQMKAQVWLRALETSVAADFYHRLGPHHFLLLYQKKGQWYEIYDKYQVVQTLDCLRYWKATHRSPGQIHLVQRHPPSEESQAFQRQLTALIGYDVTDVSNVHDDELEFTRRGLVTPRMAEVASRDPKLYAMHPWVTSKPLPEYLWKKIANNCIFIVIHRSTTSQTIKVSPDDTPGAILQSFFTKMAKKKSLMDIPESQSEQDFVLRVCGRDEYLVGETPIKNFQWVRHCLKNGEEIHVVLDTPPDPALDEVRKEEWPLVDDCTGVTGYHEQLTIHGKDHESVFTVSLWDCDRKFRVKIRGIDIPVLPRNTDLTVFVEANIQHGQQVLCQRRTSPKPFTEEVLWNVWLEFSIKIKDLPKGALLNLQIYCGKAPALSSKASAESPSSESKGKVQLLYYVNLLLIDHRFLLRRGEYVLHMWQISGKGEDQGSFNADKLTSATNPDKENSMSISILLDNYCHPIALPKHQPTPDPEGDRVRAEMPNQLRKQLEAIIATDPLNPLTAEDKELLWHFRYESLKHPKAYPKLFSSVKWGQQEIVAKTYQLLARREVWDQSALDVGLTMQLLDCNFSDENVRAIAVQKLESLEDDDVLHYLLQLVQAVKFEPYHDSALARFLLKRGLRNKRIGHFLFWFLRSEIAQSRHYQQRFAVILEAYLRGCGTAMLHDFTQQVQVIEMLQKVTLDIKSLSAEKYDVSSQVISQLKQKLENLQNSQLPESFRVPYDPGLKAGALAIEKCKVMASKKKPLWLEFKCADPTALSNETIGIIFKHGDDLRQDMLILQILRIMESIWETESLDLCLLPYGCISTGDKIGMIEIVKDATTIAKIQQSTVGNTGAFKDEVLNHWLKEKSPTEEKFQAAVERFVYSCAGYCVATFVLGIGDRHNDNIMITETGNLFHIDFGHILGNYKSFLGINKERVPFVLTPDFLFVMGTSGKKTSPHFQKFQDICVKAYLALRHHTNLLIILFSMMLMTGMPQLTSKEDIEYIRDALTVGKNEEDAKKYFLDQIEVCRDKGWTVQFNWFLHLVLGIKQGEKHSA
measured metric: IC50 (nM)
Give a bare numeral; the unit nM is implied.

Qu. I have this molecule here, Cc1ccccc1-n1c(C(C)Nc2nc(N)nc3nc[nH]c23)nc2cccc(C)c2c1=O (stereo not shown) [CAL-130] , and I need its recorded IC50.
Ans. 6.1
